Test system: NCI-H23 lung
Assay: NCI-60 one-dose screen, 48 h (100 = growth as untreated, 0 = no growth, -100 = all killed)
Conditions: 10 µM unless noted
About 83,000 compounds went through this panel and 20% of them were active in at least one assay; those are over-represented in the sample as a whole.
Decide using growth alone. Strictly below 50%: fulfilled. Equal to or above 50%: not fulfilled.

Some solved entries appear below for comparison.
{"compound": "Cn1c(-c2c(N)n(Cc3cccnc3)c3nc(C#N)c(C#N)nc23)nc2ccccc21", "category": "not fulfilled"}
{"compound": "COc1ccc(OC)c2c1[nH]c(=O)c1c3ncccc3cn21", "category": "fulfilled"}
{"compound": "Nc1cc2c3c(cccc3c1)C(=O)N(CCN1CCCC1)C2=O", "category": "fulfilled"}
{"compound": "NC(=O)c1ccc[n+]([C@@H]2O[C@H](COP(=O)([O-])OP(=O)(O)OC[C@H]3O[C@@H](n4cnc5c(N)ncnc54)[C@H](O)[C@@H]3O)[C@@H](O)[C@H]2O)c1", "category": "not fulfilled"}
{"compound": "O=S(=O)(O)c1ccc(N/N=C/c2ccccc2Cl)cc1", "category": "not fulfilled"}
{"compound": "CCCCCCCCCOc1c(OC)cc(C2CC(=O)Nc3c2c(C)nn3-c2nc3ccccc3[nH]2)cc1OC (centres undefined)", "category": "fulfilled"}

API: query returns whether the compound falls strictly under 50% in growth. Query: O=C(CSc1nnc(-c2ccc(NC(=O)c3cccnc3)cc2)o1)Nc1cccc(Br)c1 not fulfilled

growth strictly < 50% for this compound? COc1cc(Cn2ncc3ccc(NC(=O)c4cc5ccccc5oc4=N)cc32)cc(OC)c1OC not fulfilled

Criterion: growth strictly below 50%. Is it met by COc1ccc(C(=O)Nn2c(NCC(=O)N3c4ccccc4Sc4ccccc43)nnc2-c2ccc(O)cc2)cc1 ? not fulfilled

I'd appreciate it if you could check whether COC(=O)[C@]12CC[C@@H](C)[C@H](C)[C@@H]1C1=CC[C@@H]3[C@@]4(C)C(C=O)=C[C@@](C)(COC(=O)c5ccco5)C4=CC[C@@]3(C)[C@]1(C)CC2 has growth smaller than 50%. fulfilled

is_below(growth, 50%) for N#CCN1C(=O)C2C3=C(CCCC3)SC2N=C1CN1CCCC1 (centres undefined) ? not fulfilled

Please let me know if Cc1cc(Cl)nc(NCc2cc(Nc3ccnc4cc(Cl)ccc34)ccc2F)n1 shows growth below 50%. fulfilled

Please indicate whether the reported growth of Cc1cc(NCc2cc(Nc3ccnc4cc(Cl)ccc34)ccc2F)nc(Cl)n1 is strictly below 50%. fulfilled
